biological target: recombinant human PAI-1 (Homo sapiens); assay: biochemical; details: read-out: Inhibition Rate of PAI-1 Activity (%);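 also: PAI-1 preincubated with compound, then two-chain tPA added, residual tPA activity read with fluorogenic Pyr-Gly-Arg-MCA substrate after 30 min at room temperature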
Sequence (P05121 24-402): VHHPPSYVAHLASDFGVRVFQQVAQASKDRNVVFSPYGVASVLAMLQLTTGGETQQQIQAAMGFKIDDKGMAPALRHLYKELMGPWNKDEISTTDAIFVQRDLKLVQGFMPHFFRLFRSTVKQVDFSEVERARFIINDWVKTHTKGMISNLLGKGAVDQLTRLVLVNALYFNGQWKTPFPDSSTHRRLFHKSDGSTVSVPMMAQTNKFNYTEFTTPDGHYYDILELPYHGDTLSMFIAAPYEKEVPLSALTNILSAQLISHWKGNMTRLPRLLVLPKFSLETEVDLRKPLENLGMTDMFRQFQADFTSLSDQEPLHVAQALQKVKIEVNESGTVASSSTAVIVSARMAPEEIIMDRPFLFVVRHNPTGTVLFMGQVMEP
property-measured: inhibition at 10 µM (%)
Just the number please, in %, no unit attached.

Recorded inhibition at 10 µM for O=C(O)C(=O)N(Cc1ccc(OC(F)(F)F)cc1)c1ccc(-c2ccccc2)cc1 , please?
11

Please answer likewise for CC(C)(C)c1ccc(CN(C(=O)C(=O)O)c2ccc(-c3ccccc3OC(F)(F)F)cc2)cc1
89

What do you get for Cc1ccc(-c2ccc(OC(F)(F)F)cc2)cc1N(Cc1ccc(C(C)(C)C)cc1)C(=O)C(=O)O ?
47

Try this molecule too: Cc1cc(N(C)C)c(-c2ccc(OC(F)(F)F)cc2)cc1N(CCCCc1ccccc1)C(=O)C(=O)O
96

Param item: CC(C)(C)c1ccc(COc2ccc(-c3ccc(OC(F)(F)F)cc3)cc2COCC(=O)O)cc1
85

// query: CSc1ccc(-c2ccc(N(Cc3ccc(C(C)(C)C)cc3)C(=O)C(=O)O)cc2)cc1
14

Next molecule up: CC(C)(C)c1ccc(COc2c(Cl)cc(-c3ccc(OC(F)(F)F)cc3)cc2CCC(=O)O)cc1
63

What do we get for O=C(O)C(=O)N(Cc1ccc(Cl)cc1Cl)c1ccc(-c2ccc(OC(F)(F)F)cc2)cc1 ?
22
